Biological target: T1, human BCMA (huBCMA), full length, on cells (human, UniProt Q02223 1-184)
T1 construct: also called native huBCMA; B-cell maturation antigen
T1 chain: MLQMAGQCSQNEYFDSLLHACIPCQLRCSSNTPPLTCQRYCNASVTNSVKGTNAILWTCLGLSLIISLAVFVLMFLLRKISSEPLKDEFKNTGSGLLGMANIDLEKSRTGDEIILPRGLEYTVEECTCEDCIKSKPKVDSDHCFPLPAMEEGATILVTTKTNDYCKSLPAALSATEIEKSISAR
Experiment: APRIL blocking FACS
Design: concentration or dose not given beside the values
result-type: Avg. % Inhibition (%)
Report only the number, with the unit % understood.

Dear colleague, please send me the reported Avg. % Inhibition for 37B2 (antibody, V domains shown, Tested as purified hybridoma IgG2 or IgG4; also called Ab-16; 37B2.1) VH: EVQLLESGGALVQPGGSLRLSCAASGFTFSNYAMNWVRQAPGKGLEWVSAISVGGDTYYADSVKGRFTISRDNSKNTLYLHVNSLSAEDSAVYYCAKDQVTLVRGVWYYYGLDVWGQGTTVTVSS VL: VIVLIQSPLSLPVTPGEPASISCRSSQSLLHSNGNNYLDWYLQKPGQSPHLLISLGSNRTSGVPDRFSGSGSGTDFTLKISRVEAEDVGFYYCMQALQPPRRFGQGTKLEIKR when you can.
48
